Target: MAPK15 (human) (UniProt Q8TD08)
Sequence (Q8TD08 whole entry, looked up): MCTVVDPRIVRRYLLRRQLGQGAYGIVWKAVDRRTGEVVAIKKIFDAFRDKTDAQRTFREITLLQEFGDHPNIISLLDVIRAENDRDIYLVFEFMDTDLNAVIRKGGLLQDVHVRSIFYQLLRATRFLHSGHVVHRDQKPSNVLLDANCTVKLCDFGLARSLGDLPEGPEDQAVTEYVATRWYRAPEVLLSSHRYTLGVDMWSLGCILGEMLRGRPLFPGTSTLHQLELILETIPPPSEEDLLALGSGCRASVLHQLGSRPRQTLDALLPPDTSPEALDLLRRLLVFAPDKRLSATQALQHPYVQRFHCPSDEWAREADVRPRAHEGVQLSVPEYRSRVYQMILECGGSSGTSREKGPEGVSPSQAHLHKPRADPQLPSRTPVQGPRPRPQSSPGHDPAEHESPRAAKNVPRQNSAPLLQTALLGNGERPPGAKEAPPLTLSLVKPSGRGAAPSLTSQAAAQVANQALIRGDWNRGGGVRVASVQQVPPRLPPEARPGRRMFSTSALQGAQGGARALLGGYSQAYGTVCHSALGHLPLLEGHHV
Experiment: radiometric filter-binding kinase assay
Settings: compound 10.0 µM
Threshold rule: residual activity greater than or equal to 90% is 1 (yes); below that, 0 (no).

Previously resolved entries follow.
INSERT INTO results (structure_as_smiles, class_label) VALUES
  ('COc1cc(C(=O)N2CCOCC2)c(F)cc1Nc1ncc(C(F)(F)F)c(NC2CC2)n1', '0 (no)'),
  ('Cn1nc(Nc2ccc(F)cc2)c2c(N)ncnc21', '0 (no)'),
  ('NCC(=O)Nc1ccc(-n2nc(C(F)(F)F)cc2-c2ccc3c(ccc4ccccc43)c2)cc1', '0 (no)'),
  ('CN1C(=O)[C@@H](Cc2c[nH]c3ccccc23)NC1=S', '1 (yes)'),
  ('Cc1ccc(-c2ccc3c(ccc4sc5c(c43)NC[C@@H](C)NC5=O)n2)cn1', '0 (no)');

stdin: Say whether `Cc1cc(SCc2sc(-c3ccc(C(F)(F)F)cc3)nc2C)ccc1OCC(=O)O` shows residual activity of 90% or more.
stdout: 1 (yes)

stdin: // repeat for `Cc1ccc(=O)n(-c2ccccc2)c1` and report
stdout: 0 (no)

stdin: Subsequent entry: `O=C(NOC[C@H](O)CO)c1ccc(F)c(F)c1Nc1ccc(I)cc1Cl`
stdout: 1 (yes)

----------
Provide the recorded residual activity for the entries that follow.
Target: UniProt:Q9BYT3
Sequence (Q9BYT3 whole entry, looked up): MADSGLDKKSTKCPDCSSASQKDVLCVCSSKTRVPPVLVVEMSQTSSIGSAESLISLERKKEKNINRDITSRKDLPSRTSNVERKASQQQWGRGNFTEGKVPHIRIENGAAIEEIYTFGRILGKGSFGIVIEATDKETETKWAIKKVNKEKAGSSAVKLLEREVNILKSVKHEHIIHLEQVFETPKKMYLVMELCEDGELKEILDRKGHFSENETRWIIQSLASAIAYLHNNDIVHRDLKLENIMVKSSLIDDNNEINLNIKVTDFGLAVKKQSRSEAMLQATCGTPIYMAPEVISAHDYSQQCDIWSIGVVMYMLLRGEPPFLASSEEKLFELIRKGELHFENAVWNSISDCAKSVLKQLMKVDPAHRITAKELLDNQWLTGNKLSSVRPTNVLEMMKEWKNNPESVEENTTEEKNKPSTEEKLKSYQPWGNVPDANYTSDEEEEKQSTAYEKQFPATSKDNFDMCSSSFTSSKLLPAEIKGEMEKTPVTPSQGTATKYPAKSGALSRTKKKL
Experiment: radiometric filter-binding kinase assay
Details: compound 0.1 µM
One number for each entry, in %.

// solved cases for residual activity follow
INSERT INTO measurements (molecule, metric, unit_symbol, quantitative_readout) VALUES
  ('CC1=C(CO)C(=O)O[C@@H]([C@@H](C)[C@H]2CC[C@H]3[C@@H]4C[C@H]5O[C@]56[C@@H](O)C=CC(=O)[C@]6(C)C4CC[C@]23C)C1 (some centres not stated)', 'residual activity', '%', 116),
  ('O=C(N[C@@H](COc1ccc2[nH]c(=O)[nH]c2c1)c1ccccc1)c1cccn(Cc2ccc(F)c(F)c2)c1=O', 'residual activity', '%', 92),
  ('CN1CCN(CCOc2cc(OC3CCOCC3)c3c(Nc4c(Cl)ccc5c4OCO5)ncnc3c2)CC1', 'residual activity', '%', 105);

Take each entry in turn and give its residual activity.
1. COc1ccc(N(C(=O)Nc2c(C)cccc2C)c2cc(Nc3ccc(N4CCN(C)CC4)cc3)ncn2)c(OC)c1
2. COc1cc(O)c2c(c1)[C@H]1OC1C[C@H](O)[C@H](O)C(=O)/C=C\C[C@H](C)OC2=O (some centres not stated)
3. Cc1cc(NC(=O)c2cccc(NC(=O)/C=C/CN(C)C)c2)ccc1Nc1nccc(-c2cccnc2)n1
4. Cc1ccc(-c2ccc3c(ccc4sc5c(c43)NC[C@@H](C)NC5=O)n2)cn1
5. CN(C)C/C=C/C(=O)Nc1cccc(C(=O)Nc2ccc(Nc3nccc(-c4cccnc4)n3)cc2)c1
6. CCn1c(-c2nonc2N)nc2cncc(CNC3CCNCC3)c21
7. COc1cc(O)c2c(c1)/C=C/C[C@H](O)[C@H](O)C(=O)/C=C\C[C@H](C)OC2=O
8. c1ccc2c(-c3cnn4cc(-c5ccc(N6CCNCC6)cc5)cnc34)ccnc2c1

stdout:
106
105
99
105
92
104
120
81

stdin: What value of measured residual activity is listed for `C=CC(=O)N1CCC[C@@H](n2nc(-c3ccc(Oc4ccccc4)cc3)c3c(N)ncnc32)C1` ?
stdout: 97
